target: GST-SAST2 PDZ domain 1 (human); assay: G assay ELISA, E6 PL peptide titrated on constant GST-PDZ
Ends that are not written are not given here.
Endpoint Label: pEC50
Recall that pEC50 is obtained by taking minus log10 of the concentration measured in molar.

Supply recorded pEC50 for WTGRCMSCCRSSRTRRETQL (not fully specified; cysteine pairing not given here) [HPV16 E6 C-terminal PDZ ligand peptide (20 mer, biotinylated), P03126 139-158] here.
5.92
